conditions: Crystal; DTA
Measured Normal melting temperature, listed per entry for reference.
Could you give me the number in °C? Just the number is fine.

O=C(O)CCCCC(=O)O [1,6-hexanedioic acid]	153.00

In the following, a different molecule is considered.
Prompt: Identify measured Normal melting temperature corresponding to O=C(O)CCCCCCCCC(=O)O [1,10-decanedioic acid]
Completion: 132.00

====

assay.protocol: Molar enthalpy of transition or fusion
conditions: Crystal; DSC
# YES = Molar enthalpy of transition or fusion below 8 kcal/mol (exclusive); NO = Molar enthalpy of transition or fusion at/above 8 kcal/mol

The examples below pair each entry with its known result.
O=C(O)CCCCCCCCC(=O)O [1,10-decanedioic acid]	NO
O=C1OC(=O)c2ccccc21 [isobenzofuran-1,3-dione]	YES
O=C(O)CCCCC(=O)O [1,6-hexanedioic acid]	NO

Now look at this one.
Prompt: Bench note: check whether O=C(O)/C=C\C(=O)O [cis-1,4-butenedioic acid] shows Molar enthalpy of transition or fusion below 8 kcal/mol
Completion: YES

====

conditions: Crystal; DTA
measured.attribute: Normal melting temperature (°C)
Could you give me the number in °C? Just the number is fine.

COC(=O)c1ccc(C(=O)OC)cc1 [dimethyl 1,4-benzenedicarboxylate]	142.00
O=C(O)/C=C\C(=O)O [cis-1,4-butenedioic acid]	135.00

Prompt: Identify measured Normal melting temperature corresponding to O=C1OC(=O)c2ccccc21 [isobenzofuran-1,3-dione]
Completion: 131.00
